Can you tell me viability at 20 µM for the items I'm about to list?
# Tested on: cancer cells
# protocol-text: Survival rate of cancer cells after test compound is added (flow cytometry, Annexin V-FITC/PI, clinical specimen)
# Assay type: cell-based, patient
# condition-description: Homo sapiens, 18 h, Malignant melanoma; 20.0 μM; read-out: Survival rate (%) All cells (Stem cells and ordinary cells)
One number for each entry, in %.

Reference set (5 entries):
molecule="C=C1C(=O)O[C@H]2[C@H]1CC[C@]1(C)O[C@@]13CC[C@@](C)(O)[C@H]23 [Compound 24]" endpoint_name="viability at 20 µM" value_measured=86
molecule="C=C1CC[C@H]2C(=C)CC[C@H]3C(=C)C(=O)O[C@@H]3[C@@H]12 [Compound 25]" endpoint_name="viability at 20 µM" value_measured=66
molecule="CC1=C2CC[C@@](C)(O)[C@@H]2[C@H]2OC(=O)[C@@H](CN(C)C)[C@@H]2CC1 [Compound 23]" endpoint_name="viability at 20 µM" value_measured=86
molecule="C=C1C(=O)O[C@H]2[C@H]1CC[C@@](C)(OC)C1CC[C@@](C)(O)[C@@H]12 (stereo partly drawn) [Compound 47]" endpoint_name="viability at 20 µM" value_measured=86
molecule="C=C1C(=O)O[C@@H]2[C@@H]3[C@@H](CC[C@@]3(C)O)[C@](C)(O)CC[C@@H]12 [Compound 49]" endpoint_name="viability at 20 µM" value_measured=87

Entry C=C1C(=O)O[C@@H]2[C@@H]3[C@@H](CC[C@@]3(C)O)C(=C)CC[C@@H]12 [Compound 48] has what viability at 20 µM?
86

* * *

# Tested on: cancer stem cells
# protocol-text: Survival rate of cancer stem cells after test compound is added (flow cytometry, Annexin V-FITC/PI, clinical specimen)
# Assay type: cell-based, patient
# condition-description: Homo sapiens, 18 h, CML; 10.0 μM
Can you tell me viability at 10 µM for the items I'm about to list?
Answers are plain numbers, in %.

compound="CN(C)C[C@@H]1C(=O)O[C@H]2[C@H]1CCC1(CC1)[C@@H]1CCC3(CC3)[C@H]21 [Compound 35]" target="cancer stem cells" endpoint_name="viability at 10 µM" value_measured=84
compound="CCOC(=O)[C@@H]1CCCN1C[C@@H]1C(=O)O[C@H]2[C@H]1CCC1(CC1)[C@@H]1CCC3(CC3)[C@H]21 [Compound 29]" target="cancer stem cells" endpoint_name="viability at 10 µM" value_measured=81

Next compound, viability at 10 µM to be filled in.
Entry CN(C)C[C@@H]1C(=O)O[C@H]2[C@H]1CCC1(CC1)[C@@H]1CCC3(CC3)[C@H]21 [Compound 27] has what viability at 10 µM?
87

* * *

# Test system: cancer cells
# protocol-text: Survival rate of cancer cells after test compound is added (flow cytometry, Annexin V-FITC/PI, clinical specimen)
# Type: cell-based, patient
# condition-description: Homo sapiens, 18 h, Gastrointestinal tumor; 10.0 μM; read-out: Survival rate (%) All cells (Stem cells and ordinary cells)
endpoint-name: viability at 10 µM (%)
One number for each entry, in %.

Reference set (2 entries):
compound="C=C1C(=O)O[C@H]2[C@H]1CC[C@@](C)(OC)C1CC[C@@](C)(O)[C@@H]12 (stereo partly drawn) [Compound 47]" target="cancer cells" value_measured=89
compound="CN(C)C[C@@H]1C(=O)O[C@H]2[C@H]1CCC1(CC1)[C@@H]1CCC3(CC3)[C@H]21 [Compound 35]" target="cancer cells" value_measured=92

Short answer please: viability at 10 µM, cancer cells, entry [2H][C@@]1(CN(C)C)C(=O)O[C@@H]2[C@@H]3[C@@H](CCC34CC4)C3(CC[C@H]21)CC3 [Compound 46]
89

Where do these numbers come from? They come from patent US10463644B2.
